protocol-summary: Substrate activity at P-gp in human K562/4 cells assessed as test compound accumulation at 2 uM after 1 to 24 hrs by flow cytometry
Assay type: ADME, cell-based
measured-quantity: Activity

>  <compound>
N[C@H]1CCN(C(=O)c2coc3c(O)c4c(c(O)c23)C(=O)c2ccccc2C4=O)C1

>  <obs-value>
Not Active

$$$$
>  <compound>
O=C1c2ccccc2C(=O)c2c1c(O)c1occ(C(=O)NC3CCCNC3)c1c2O (racemic)

>  <obs-value>
Not Active

$$$$
>  <compound>
N[C@H]1CCN(C(=O)c2c(C(F)(F)F)oc3c(O)c4c(c(O)c23)C(=O)c2ccccc2C4=O)C1

>  <obs-value>
Not Active

$$$$
